FYI, the data here is from PubChem BioAssay AID1851.

- measured-target: Cytochrome P450 1A2 (Homo sapiens)
- assay-remarks: Cytochrome panel assay with activity outcomes
- setup-conditions: recombinant CYP, pro-luciferin dealkylation, luminescence, p450-cyp1a2; series mostly up to 57.1 µM
In all, about 16,000 compounds went through this assay and about 5,700 (36%) were called active. Another 24% or so got no clear call; they are omitted. Calls come from the whole dose curve; as a rule, active = well fitted curve in the direction sought with a large enough effect; inconclusive = small, poorly fitted or top-dose-only effect, or effect the other way; inactive = no such curve, though single readings can be large or run the other way. This is one part of the list.
Classes used: true (active), false (inactive)

compound: CCN(CC)CCNC(=O)c1ccc(Cl)c(S(=O)(=O)Nc2ccccc2OC)c1
assigned-class: false

compound: O=C(Nc1cccc(F)c1)N1CC2(CCN(C(=O)c3csnn3)CC2)C1
assigned-class: false

compound: COc1ccccc1C(=O)NN1C(=O)C2C3C=CC(O3)C2C1=O (stereo unspecified)
assigned-class: false

compound: Cc1c(NC(=O)C(C)N2C(=O)c3ccccc3C2=O)c(=O)n(-c2ccccc2)n1C (stereo unspecified)
assigned-class: false

compound: COc1cccc(Cn2c(=O)c(-c3cc(F)cc(F)c3)nc3cnc(N(C)C)nc32)c1
assigned-class: false

compound: Fc1cccc(/C=N\N=C/c2cccc(F)c2)c1
assigned-class: true

compound: COc1ccccc1C(=O)NC(=S)N1CCCc2ccccc21
assigned-class: true

compound: CCn1ncc(/C=C/C(=O)NCc2cn(C)nc2C)c1C
assigned-class: false

compound: CC(=O)Nc1c2c3c(cccc3n(C)c1=O)C(=O)c1ccccc1-2
assigned-class: true

compound: CN(C)c1ncc2nc(CCc3ccccc3)c(=O)n(-c3ccccc3)c2n1
assigned-class: true

compound: CCN(CC)S(=O)(=O)c1cc(C(=O)OC)ccc1Cl
assigned-class: true

###

- measured-target: Cytochrome P450 1A2 (Homo sapiens) (UniProt P05177)
- Sequence (P05177 whole entry, looked up): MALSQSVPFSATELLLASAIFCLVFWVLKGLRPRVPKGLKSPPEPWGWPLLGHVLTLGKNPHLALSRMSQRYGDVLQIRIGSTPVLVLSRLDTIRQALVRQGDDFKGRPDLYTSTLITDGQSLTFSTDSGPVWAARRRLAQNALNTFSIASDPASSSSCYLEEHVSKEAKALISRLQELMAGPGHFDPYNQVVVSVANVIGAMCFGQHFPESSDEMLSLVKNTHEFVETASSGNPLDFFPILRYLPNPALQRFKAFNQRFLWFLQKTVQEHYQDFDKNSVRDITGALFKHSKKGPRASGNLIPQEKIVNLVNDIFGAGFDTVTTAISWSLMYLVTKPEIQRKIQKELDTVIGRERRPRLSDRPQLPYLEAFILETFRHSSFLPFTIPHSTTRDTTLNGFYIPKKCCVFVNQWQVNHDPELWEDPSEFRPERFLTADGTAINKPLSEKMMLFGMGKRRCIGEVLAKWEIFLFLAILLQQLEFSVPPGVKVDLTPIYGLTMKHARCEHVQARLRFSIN
- assay-remarks: Cytochrome panel assay with activity outcomes
- setup-conditions: recombinant CYP, pro-luciferin dealkylation, luminescence, p450-cyp1a2; series mostly up to 57.1 µM
Out of some 16,000 compounds screened, about 5,700 (36%) were called active. Roughly 24% stayed inconclusive and do not appear here. Calls follow the shape of the dose curve; as a rule, active = well fitted curve in the direction sought with a large enough effect; inconclusive = small, poorly fitted or top-dose-only effect, or effect the other way; inactive = no such curve, though single readings can be large or run the other way. The list shows a part of the results.
Labels: active, inactive

compound: CC(C)NC(=O)N1CC[C@@]2(CCCN(C(=O)c3csnn3)C2)C1
assigned-class: inactive

compound: c1ccc(C[n+]2cccc(-c3cc4ccccc4[nH]3)c2)cc1
assigned-class: active

compound: O=c1ccc(NS(=O)(=O)c2ccccc2)cn1Cc1ccc(Cl)c(Cl)c1
assigned-class: inactive

compound: CC(C)Oc1ccc(C2CC(=O)NC3=C2C(=O)CCC3)cc1 (stereo not given)
assigned-class: inactive

compound: CC1(C)S[C@@H]2[C@H](NC(=O)[C@H](C(=O)O)c3ccsc3)C(=O)N2[C@H]1C(=O)O
assigned-class: inactive

compound: Cc1ccc(S(=O)(=O)Nc2ccc(=O)n(Cc3ccc(Cl)c(Cl)c3)c2)cc1
assigned-class: active

compound: O=C(O)C1C2C=CC(C2)C1C(=O)N1CCN(C/C=C/c2ccccc2)CC1 (stereo not given)
assigned-class: inactive

compound: CN1CCN(c2ncncc2-c2ccc(N(C)C)cc2)CC1
assigned-class: active

compound: CC(C)c1cccc2cc3c(nc12)-c1cccc(=O)n1C3
assigned-class: active

compound: CCc1c2c(nc3c(C(C)C)cccc13)-c1cccc(=O)n1C2
assigned-class: active

###

- measured-target: Cytochrome P450 1A2 (Homo sapiens)
- assay-remarks: Cytochrome panel assay with activity outcomes
- setup-conditions: recombinant CYP, pro-luciferin dealkylation, luminescence, p450-cyp1a2; series mostly up to 57.1 µM
- Procedure: The P450 gene superfamily is involved in the metabolism and clearance of xenobiotics. This assay used various human CYP P450 isozymes to measure the dealkylation of various pro-luciferin substrates to luciferin. The luciferin is then measured by luminescence after the addition of a luciferase detection reagent. […] Inhibitors and some substrates limit the production of luciferin, and decrease measured luminescence. […] 8, Detection, 1 sec, ViewLux luminescent read […]
The whole screen tested about 16,000 compounds, of which about 5,700 (36%) were called active. Inconclusive results (about 24%) are left out. The list shows a part of the results.
readout-label: AC50

compound: N#Cc1cccc(-c2cncnc2NCc2ccccc2)c1
observed: 5.01 µM (active)
//
compound: Cc1cccc(CNc2ncncc2-c2cccc(C#N)c2)c1
observed: 2.51 µM (active)
//
compound: Clc1ccc(Cc2nc(-c3cccnc3)no2)cc1
observed: 1 µM (active)
//
compound: COc1c(/C=N/Nc2ccc([N+](=O)[O-])cc2[N+](=O)[O-])c(C)nn1-c1ccccc1
observed: inactive
//
compound: COCCNc1nc(-c2cccc(NS(C)(=O)=O)c2)nc2ccccc12
observed: 3.16 µM (active)
//
compound: CS(=O)(=O)Nc1cccc(-c2nc(NCc3ccccc3)c3ccccc3n2)c1
observed: 2.51 µM (active)
//
compound: Cc1ccc(NCC(=O)N/N=C/c2ccc(OC(=O)c3ccco3)cc2)cc1
observed: 7.08 µM (active)
//
compound: Cc1ccc(NC(=O)C2(NC(=O)c3cccc(N4C(=O)CSC4c4ccccc4)c3)CCCCC2)cc1 (stereo not given)
observed: inactive
//
compound: O=[N+]([O-])c1ccc(N/N=C\c2cccn2-c2ccccc2)nc1
observed: 3.55 µM (active)
//
compound: CC(=O)NCCNc1nc(-c2cccc(NS(C)(=O)=O)c2)nc2ccccc12
observed: 15.8 µM (active)
